subject.of.test: hM4 (Homo sapiens)
Sequence (P08173 whole entry): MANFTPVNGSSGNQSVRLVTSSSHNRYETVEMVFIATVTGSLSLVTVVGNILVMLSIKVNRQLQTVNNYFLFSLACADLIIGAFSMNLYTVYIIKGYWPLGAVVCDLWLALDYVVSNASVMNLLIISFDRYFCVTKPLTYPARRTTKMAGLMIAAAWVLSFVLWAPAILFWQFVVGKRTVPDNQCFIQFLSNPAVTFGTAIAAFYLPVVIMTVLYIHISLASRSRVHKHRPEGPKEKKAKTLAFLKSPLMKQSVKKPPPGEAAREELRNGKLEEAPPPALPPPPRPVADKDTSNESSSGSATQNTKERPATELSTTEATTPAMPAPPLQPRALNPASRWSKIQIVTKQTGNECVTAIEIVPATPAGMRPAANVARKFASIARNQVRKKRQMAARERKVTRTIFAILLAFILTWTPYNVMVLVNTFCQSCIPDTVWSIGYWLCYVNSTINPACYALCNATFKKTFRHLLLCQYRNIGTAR
assay.overview: Calcium mobilization PAM selectivity assay, hM4
pEC50: −log10 of the molar value.

compound: Cn1cc2c(-c3cc(F)c(CN4Cc5cnn(CC6CCCO6)c5C4=O)c(F)c3)cccc2n1 (centres unmarked) [Compound 20a]
pEC50: < 5.00

compound: Cn1cc2cc(-c3ccc(CN4Cc5ncsc5C4=O)c(F)c3)ccc2n1
pEC50: < 5.00

The reported measurements were obtained from paper PMC8349895.
